Cited source: PubChem BioAssay

- PROTOCOL_DESCRIPTION: binders from COS7 lysate, DM2A8 probe, primary screen, torsin A project, cell lysate, small-molecule microarray, fluorescence 635/667 (AID 1065)
- CONDITIONS_USED: higher = more signal, COS7 lysate expressing mutant human TOR1A
Listed next: entries and their corresponding composite z-score.

COMPOUND | composite z-score
COc1ccc([Si](C)(C)[C@H]2[C@H](CC(=O)N(CCO)Cc3ccccc3)O[C@@]3(C(=O)N(Cc4cccc(N5CCCCC5=O)c4)c4ccccc43)[C@@H]2C)cc1 | 1.12
COC(=O)c1c2oc(c1C(=O)OC)C(=O)N[C@H](Cc1ccccc1)Cn1cc(nn1)C1(CCCCC1)NC(=O)N[C@H](CO)CC2 | 0.112
C=CCOC(=O)[C@H]1[C@@H]2C(=O)O[C@@H](c3ccccc3)[C@@H](c3ccccc3)N2[C@@H](c2ccc(OCCOC(=O)[C@@H]3C[C@@H]4C(=O)N[C@@H](Cc5ccccc5)C(=O)N4[C@@H]3c3ccc(O)cc3)cc2)[C@]12C(=O)Nc1ccc(I)cc12 | 0.0366
COCCCNC(=O)[C@@]1(Cc2ccccc2I)c2ccccc2C(=O)N(Cc2ccccc2C(F)(F)F)[C@H]1c1ccc(CO)cc1 | 0.395
[N-]=[N+]=NCc1ccccc1[C@H]1OC(c2ccc(OCCCO)cc2)=N[C@@]1(Cc1ccccc1N=[N+]=[N-])C(=O)N1CCOCC1 | -0.154
C=CCN1C(=O)[C@]2(O[C@H](CCO)[C@@H]([Si](C)(C)c3ccc(OC)cc3)[C@@H]2C)c2cc(N3C(=O)c4ccccc4Oc4ccccc43)ccc21 | -0.203
Cc1c(NC(=O)/C(C#N)=C/C=C/c2ccc([N+](=O)[O-])cc2)c(=O)n(-c2ccccc2)n1C | 0.129
CC(C)c1ccc(NN2C(C(O)C3CCCCC3)C=CC3C(=O)N(c4ccccc4)C(=O)C32)cc1 (stereo not drawn) | 0.333
COC(=O)C(CC#Cc1ccc2c(c1)[C@]1(C(=O)N2)[C@H](c2ccccc2OCCO)N2[C@H](c3ccccc3)[C@H](c3ccccc3)OC(=O)[C@H]2[C@@H]1C(=O)N1CCN(c2ncccn2)CC1)C(=O)OC | 0.474
CCOC(=O)C1=CCC(c2ccncc2)N(S(=O)(=O)c2ccc(C)cc2)C1 (stereo not drawn) | -0.128
Cc1ccc(S[C@]2(C(=O)NCCN3CCOCC3)CC(=O)N(C(C)C)[C@@H]2c2ccc(CO)cc2I)cc1 | -0.158
CCCCC(=C=CC[C@@H](O)c1ccccc1OCCO)C[C@@H](O)c1ccccn1 | 0.362
COC(=O)C[C@H]1O[C@]2(C(=O)N(C)c3ccccc32)[C@@H](C)[C@@H]1[Si](C)(C)c1ccccc1 | 0.0686

* * *

Some molecules, each annotated with its measured composite z-score.
- System: Lefty1
- PROTOCOL_DESCRIPTION: Lefty1 binders on small-molecule microarrays, primary screen, biochemical, small-molecule microarray, 635/667 nm fluorescence (AID 1139)
- CONDITIONS_USED: small-molecule microarray binding, fluorescence 635/667; higher = more signal
MEASUREMENT_LABEL: composite z-score

MOLECULE | RECORDED_RESULT
CCc1cccc(NC(=O)O[C@H]2[C@H](OC(=O)Nc3ccccc3-c3ccccc3)[C@H](OC(=O)Nc3ccccc3-c3ccccc3)[C@@H](OC)O[C@@H]2CO)c1 | 1.21
COc1cc(CO)cc(I)c1O[C@H]1C=C(C(=O)NCCO)C[C@@H](N(CCN2CCOCC2)C(=O)C2CCCO2)[C@@H]1O (some centres not stated) | 0.159
C=C(COC)C(=O)CC[C@@H](OC(=O)c1ccccc1-c1ccccc1C(=O)O)c1ccccc1OCCO | 0.922
COC(=O)C(CC#Cc1ccc2c(c1)[C@]1(C(=O)N2)[C@H](C(=O)NC[C@H](O)c2ccccc2)[C@H]2C(=O)O[C@H](c3ccccc3)[C@H](c3ccccc3)N2[C@@H]1c1ccc(O)cc1)C(=O)OC | 0.192
COC(=O)[C@@]1(Cc2ccc(F)cc2)[C@H]2c3cc(C(=O)N(C)C)n(Cc4cccc5ccccc45)c3C[C@H]2CN1C(=O)c1ccccc1 | -0.446
CC(C)C(=C=CC[C@H](O)c1cccc(OCCO)c1)C[C@H](O)c1ccccn1 | 0.788
C=CC[C@]1(C(N)=O)N=C(c2ccc(OCCCO)cc2)O[C@H]1c1ccccc1N=[N+]=[N-] | -0.0005

* * *

Each entry below carries its reported composite z-score.
- PROTOCOL_DESCRIPTION: small-molecule microarray binders of probe aCHRDL2, primary screen, biochemical, biotinylated probe, 635/667 nm fluorescence (AID 1100)
- CONDITIONS_USED: higher = more signal
MEASUREMENT_LABEL: composite z-score

COMPOUND | RECORDED_RESULT
COc1ccc(C(O)C2C=CC3C(=O)N(C)C(=O)C3N2Nc2ccccc2)cc1 (centres undefined) | 0.87
O=C1OC[C@@H](c2ccccc2)n2cc(/C=C/c3ccccc3)cc21 | 0.0504
COC(=O)C(CC#Cc1ccc2c(c1)[C@]1(C(=O)N2)[C@H](C(=O)NC[C@H](O)c2ccccc2)[C@H]2C(=O)O[C@H](c3ccccc3)[C@H](c3ccccc3)N2[C@@H]1c1ccc(O)cc1)C(=O)OC | 0.369
CCCCC=C[C@@H](NC(=O)C(C)(C)C)c1ccccc1 | 0.609
COC(=O)C(CC#Cc1ccc2c(c1)[C@]1(C(=O)N2)[C@H](c2ccc(OCCO)cc2)N2[C@H](c3ccccc3)[C@H](c3ccccc3)OC(=O)[C@H]2[C@@H]1C(N)=O)C(=O)OC | 0.669
CCCCCCc1nc(-c2ccc(OC)nc2)c(C)c2c1[Si](C(C)C)(C(C)C)OC2 | -0.358
CN1C(=O)C2C(C1=O)C1C=C(CCCO)C2C(C2CC2)N1C (centres undefined) | 0.38
[N-]=[N+]=NCc1ccccc1[C@H]1OC(c2ccc(OCCCO)cc2)=N[C@@]1(Cc1ccccc1N=[N+]=[N-])C(=O)O | 0.904
COCCOC(=O)N1C(=O)[C@@]2(c3cc(C#CCCO)ccc31)[C@H](C(=O)N1CCN(c3ncccn3)CC1)[C@H]1C(=O)O[C@H](c3ccccc3)[C@H](c3ccccc3)N1[C@@H]2c1ccc(OCCO)cc1 | 0.349
COc1ccc([Si](C)(C)[C@H]2[C@H](CC(=O)N(CCO)Cc3ccccc3)O[C@@]3(C(=O)N(Cc4cccc(N5CCCCC5=O)c4)c4ccccc43)[C@@H]2C)cc1 | -0.13
CC(C)[Si]1(C(C)C)OCc2cc(-c3ccc(-c4ccc(Cl)c(Cl)c4)o3)nc(-c3ccc(Oc4ccccc4)cc3)c21 | 0.745
C=CCNC(=O)[C@H]1[C@@H]2C(=O)O[C@@H](c3ccccc3)[C@@H](c3ccccc3)N2[C@@H](c2ccc(OCCO)cc2)[C@]12C(=O)N(C(=O)OCCOC)c1ccc(C#CCNC(N)=O)cc12 | 0.687
O=C1O[C@H](c2ccccc2)[C@H](c2ccccc2)N2[C@H]1[C@@H](C(=O)Nc1nc3ccccc3s1)[C@]1(C(=O)Nc3ccccc31)[C@H]2c1ccccc1OCCO | 0.505
C=CCNC(=O)[C@@H]1[C@H]2C(=O)O[C@H](c3ccccc3)[C@H](c3ccccc3)N2[C@H](c2ccc(O)cc2)[C@@]12C(=O)Nc1ccc(C#CC3=CCCCC3)cc12 | -0.228
C=C[C@@H](CO)NS(=O)(=O)c1ccc(Br)cc1 | -0.0866
COc1ccc(C#Cc2ccc3c(c2)[C@]2(C(=O)N3)[C@H](c3ccccc3OCCO)N3[C@H](c4ccccc4)[C@H](c4ccccc4)OC(=O)[C@H]3[C@@H]2C(=O)NC[C@H](O)c2ccccc2)cc1 | -0.0392
O=C1NC(=O)C2C1C=CC(C(O)C1CCCCC1)N2Nc1ccccn1 (centres undefined) | 0.279
CC(C)C[C@@H]1NC(=O)[C@@H]2C[C@H](C(=O)NCCCCCNC(=O)CS)[C@H](c3ccc(O)cc3)N2C1=O | -0.03
C=CC[C@H](OC(=O)Nc1ccc(SC)cc1)c1ccc(O)c(F)c1 | 0.277
CC(C)C(=C=CC[C@H](O)c1cccc(OCCO)c1)C[C@H](O)c1ccccn1 | -0.253
CCCC=C(CCC)[C@@H](NC(=O)c1ccc(C(=O)OC)cc1)c1ccc(C(=O)OC)cc1 | 0.48
[N-]=[N+]=Nc1ccccc1C[C@@]1(C(=O)NCC(O)CO)N=C(c2ccc(OCCCO)cc2)O[C@@H]1c1ccccc1N=[N+]=[N-] (some centres undefined) | 1.09
O=C1NC(=O)C2C1C=CC(C(O)C(c1ccccc1)c1ccccc1)N2Nc1ccccn1 (centres undefined) | 1.15
C=CC[C@H](O)c1ccc(O)c(F)c1 | 0.328
N#Cc1ccc(NN2C(C(O)c3ccc(B(O)O)cc3)C=CC3CN(c4ccccc4)C(=O)C32)cc1 (centres undefined) | 0.584
COc1cc2c(cc1OC)CN(C(=O)[C@@H]1[C@H]3C(=O)O[C@H](c4ccccc4)[C@H](c4ccccc4)N3[C@H](c3ccc(O)cc3)[C@@]13C(=O)Nc1ccc(C#CC4=CCCCC4)cc13)CC2 | 0.586
CC(C)C[C@H]1NC(=O)CNC(=O)[C@@]23C(=O)N[C@@H](Cc4ccccc4)C2[C@H](C)[C@@]2(C)O[C@H]2C3/C=C/C/C=C\CNC1=O (some centres undefined) | -0.671
C=C(C(=O)CC[C@H](OC(=O)c1ccccc1-c1ccccc1C(=O)O)c1ccc(OCCO)cc1)C(C)C | 0.0371
COC(=O)C1=CC(c2ccc(CO)cc2)=CC(C2CC2)N(Cc2cc3c(cc2Br)OCO3)C=C1C(=O)OC (centres undefined) | 0.844
